Listed molecules paired with reported Frequency: germline arms with >4 apoptotic corpses
- System: C. elegans germline
- METHOD DESCRIPTION: Apoptosis in the C. elegans germline (apoptotic corpses per germline arm), after compound and/or RNAi treatment
- Format: in vivo
- CONDITION CONTEXT: wild-type worms, compound 1.5 mM
- Experimental: The compounds were applied to early larval and adult C. elegans hermaphrodites by mixing a concentrated DMSO solution of the compound with heat-killed OP50 bacteria in a salt solution. […] Compounds 7A, 7B, 7C, 7D, 7H, 7I and 7J were applied to worms at a final concentration of 1.5 mM. and the resulting visible phenotypes analyzed. […] Early larval and adult C. elegans hermaphrodites were treated with compound and the phenotype of apoptosis in the germline arm was quantified as described in Example IV. […]
Lab note: record the figure alone, no unit after it.

Take a look at these entries with their results.
Fill blank: measured Frequency: germline arms with >4 apoptotic corpses of the molecule COc1ccc(S(=O)(=O)N2Cc3cc(C#N)ccc3N(Cc3cnc[nH]3)C[C@H]2Cc2ccccc2)cc1 [Compound 7A] is ____.
1

Fill blank: measured Frequency: germline arms with >4 apoptotic corpses of the molecule CCCS(=O)(=O)N1Cc2cc(C#N)ccc2N(Cc2cnc[nH]2)C[C@H]1Cc1ccccc1 [Compound 7H] is ____.
0

Fill blank: measured Frequency: germline arms with >4 apoptotic corpses of the molecule N#Cc1ccc2c(c1)CN(S(=O)(=O)N1CCCCC1)[C@H](Cc1ccccc1)CN2Cc1cnc[nH]1 [Compound 7B] is ____.
10

Continuing:
Fill blank: measured Frequency: germline arms with >4 apoptotic corpses of the molecule Cn1cncc1CN1C[C@@H](Cc2ccccc2)N(S(=O)(=O)c2cccs2)Cc2cc(C#N)ccc21 [Compound 7J] is ____.
3

Fill blank: measured Frequency: germline arms with >4 apoptotic corpses of the molecule COc1ccc(S(=O)(=O)N2Cc3cc(C#N)ccc3N(Cc3cncn3C)C[C@H]2Cc2ccccc2)cc1 [Compound 7I] is ____.
1
